system name: Bromodomain-containing protein 4 (Homo sapiens, UniProt O60885)
test name: Inhibition of human BRD4 bromodomain 1 expressed in Escherichia coli BL21(DE3)-R3-pRARE2 assessed as change in melting temperature at 10 uM by SYPRO orange dye-based differential scanning fluorimetry
So basically: ΔTm at 1 °C or higher? That is y. Lower than 1 °C? That is n.

Example entries begin here.
COc1cc(-c2cc3ccccc3s2)cc2c1OCCN(C(=O)C1CC1)C2 :: y
COc1cc(-c2ccc(F)c(F)c2)cc2c1OCCN(C(=O)C1CC1)C2 :: y
COc1cccc(-c2cc3c(c(OC)c2)OCCN(C(=O)C2CCCO2)C3)c1 (stereo not given) :: n
COc1cc(-c2cccc(Cl)c2)cc2c1OCCN(C(C)=O)C2 :: n
COc1cc(-c2ccc(C)cc2)cc2c1OCCN(C(=O)C1CC1)C2 :: y

**Q:** // inclusive: ΔTm at least 1 °C? input: COc1cc(-c2c(OC)cccc2OC)cc2c1OCCN(C(=O)C(C)C)C2
**A:** n

**Q:** Could you verify whether the entry CCC(=O)N1CCOc2c(cc(-c3cc(OC)cc(OC)c3)cc2C(=O)N[C@@H]2CCCN(C)C2)C1 shows ΔTm of no less than 1 °C?
**A:** y

**Q:** Tell me whether ΔTm is at least 1 °C here: CCNC(=O)Nc1cc(-c2cc3c(c(OC)c2)OCCN(C(=O)C2CC2)C3)ccc1C
**A:** y

**Q:** Does the reported ΔTm for COc1cc(-c2c(OC)cccc2OC)cc2c1OCCN(C(=O)C1CC1)C2 fall at or above the 1 °C mark?
**A:** n
